study-target: 5-HT transporter (Rattus norvegicus)
Construct: from tissue; host or cells: rat brain synaptosomes (P2 fraction) from medulla and pons
Sequence (P31652 whole entry): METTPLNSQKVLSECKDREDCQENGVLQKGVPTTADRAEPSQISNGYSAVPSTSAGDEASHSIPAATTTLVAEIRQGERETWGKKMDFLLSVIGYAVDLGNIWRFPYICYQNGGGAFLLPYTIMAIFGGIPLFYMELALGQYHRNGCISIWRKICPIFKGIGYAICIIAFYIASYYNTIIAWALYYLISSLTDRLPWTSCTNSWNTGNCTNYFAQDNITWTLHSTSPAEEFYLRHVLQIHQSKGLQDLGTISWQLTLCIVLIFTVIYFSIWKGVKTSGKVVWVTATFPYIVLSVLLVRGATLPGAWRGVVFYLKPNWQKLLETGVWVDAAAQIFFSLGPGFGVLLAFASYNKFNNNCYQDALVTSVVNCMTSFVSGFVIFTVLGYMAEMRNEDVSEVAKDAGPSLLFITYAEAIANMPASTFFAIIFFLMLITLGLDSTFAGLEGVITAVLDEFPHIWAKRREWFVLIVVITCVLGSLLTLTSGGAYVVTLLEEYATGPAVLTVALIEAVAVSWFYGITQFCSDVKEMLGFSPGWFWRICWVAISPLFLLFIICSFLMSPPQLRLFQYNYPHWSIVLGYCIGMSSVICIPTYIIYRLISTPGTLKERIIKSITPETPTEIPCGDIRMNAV
experimental-details: 5-HT uptake inhibition in rat brain synaptosomes (medulla and pons), [3H]-5-HT
Assay type: biochemical
Threshold rule: inhibition at 10 µM greater than or equal to 70% is 1.0; below that, 0.0.

query-smiles: COc1ccc([N+](=O)[O-])cc1CN1CC2(CCN(C(=O)c3cc(C(C)(C)C)oc3C)CC2)OC1=O
class-label: 0.0

query-smiles: N#Cc1ccccc1CN1CC2(CCN(C(=O)CC3(CC(=O)O)CCCC3)CC2)OC1=O
class-label: 0.0

query-smiles: Cc1ccc(NC(=O)N2CCC3(CC2)CN(Cc2ccc(I)cc2)C(=O)O3)cc1[N+](=O)[O-]
class-label: 0.0

query-smiles: COc1cccc(CN2CC3(CCN(Cc4ccc(Cl)cc4)CC3)OC2=O)c1
class-label: 0.0

query-smiles: O=C(Nc1cc(Cl)ccc1Cl)N1CCC2(CC1)CN(Cc1ccccc1-c1ccccc1)C(=O)O2
class-label: 0.0

query-smiles: COc1cccc(CC(=O)N2CCC3(CC2)CN(Cc2ccc4ccccc4c2)C(=O)O3)c1
class-label: 1.0

query-smiles: COC(=O)CCC(=O)N1CCC2(CC1)CN(Cc1cccc(Br)c1)C(=O)O2
class-label: 0.0

query-smiles: COc1ccc(OC)c(CS(=O)(=O)N2CCC3(CC2)CN(Cc2cc(C)cc(C)c2)C(=O)O3)c1
class-label: 1.0

query-smiles: CCSc1ncccc1C(=O)N1CCC2(CC1)CN(Cc1cc(C)cc(C)c1)C(=O)O2
class-label: 1.0

query-smiles: O=C1OC2(CCN(C(=O)c3ccccn3)CC2)CN1Cc1cccc(Br)c1
class-label: 1.0

query-smiles: Cc1cc(C(=O)N2CCC3(CC2)CN(Cc2cccc(C#N)c2)C(=O)O3)ccc1Br
class-label: 1.0

query-smiles: N#Cc1cccc(CN2CC3(CCN(C(=S)NCc4ccc(Cl)cc4)CC3)OC2=O)c1
class-label: 0.0

query-smiles: Cc1cc(C)cc(CN2CC3(CCN(C(=O)c4c(F)ccc(C)c4F)CC3)OC2=O)c1
class-label: 0.0

###

Items are presented alongside their recorded inhibition at 10 µM.
study-target: 5-HT transporter (Rattus norvegicus)
Construct: from tissue; host or cells: rat brain synaptosomes (P2 fraction) from medulla and pons
experimental-details: 5-HT uptake inhibition in rat brain synaptosomes (medulla and pons), [3H]-5-HT
Type: biochemical
experimental-endpoint: inhibition at 10 µM (%)

compound: CCOc1ccc(C(=O)N2CCC3(CC2)CN(Cc2ccc(C)cc2)C(=O)O3)cc1
result-value: 67
--
compound: O=C1OC2(CCN(C(=O)c3cccnc3Oc3ccccc3)CC2)CN1Cc1ccc(F)c(F)c1
result-value: 63
--
compound: COc1cc(OC)cc(C(=O)N2CCC3(CC2)CN(Cc2cccc(Br)c2)C(=O)O3)c1
result-value: 74
--
compound: N#Cc1ccccc1CN1CC2(CCN(Cc3ccc(Cl)cc3)CC2)OC1=O
result-value: 56
--
compound: CC(=O)c1cccc(NC(=S)N2CCC3(CC2)CN(Cc2cc(C)cc(C)c2)C(=O)O3)c1
result-value: 55
--
compound: CCc1ccc(CS(=O)(=O)N2CCC3(CC2)CN(Cc2cccc(Br)c2)C(=O)O3)cc1
result-value: 67
--
compound: Cc1ccc(NC(=O)N2CCC3(CC2)CN(Cc2ccc(SC(F)(F)F)cc2)C(=O)O3)cc1[N+](=O)[O-]
result-value: 54
--
compound: CCCc1ccc(C(=O)N2CCC3(CC2)CN(Cc2cccc(Br)c2)C(=O)O3)cc1
result-value: 73
--
compound: CC(C)(CC(=O)O)C(=O)N1CCC2(CC1)CN(Cc1ccc(F)c(F)c1)C(=O)O2
result-value: 55
--
compound: Cc1ccc(CN2CC3(CCN(C(=S)Nc4c(F)c(F)c(F)c(F)c4F)CC3)OC2=O)cc1
result-value: 66
--
compound: O=C(NCc1ccc(Cl)c(Cl)c1)N1CCC2(CC1)CN(Cc1ccc3ccccc3c1)C(=O)O2
result-value: 57
--
compound: CC(CC(=O)O)CC(=O)N1CCC2(CC1)CN(Cc1ccccc1-c1ccccc1)C(=O)O2 (centres unmarked)
result-value: 57
--
compound: Cc1ccc2ccccc2c1CN1CCC2(CC1)CN(Cc1ccccc1C(F)(F)F)C(=O)O2
result-value: 41
--
compound: CC(=O)Nc1ccc(C(=O)N2CCC3(CC2)CN(Cc2cccc(C#N)c2)C(=O)O3)cc1
result-value: 68
--
compound: Cc1cc(C)cc(CN2CC3(CCN(C(=O)c4ccc5nonc5c4)CC3)OC2=O)c1
result-value: 73
--
compound: Cc1ccc(CN2CC3(CCN(C(=O)Nc4ccc(C)c([N+](=O)[O-])c4)CC3)OC2=O)cc1
result-value: 62
--
compound: Cc1cc(C)cc(CN2CC3(CCN(S(=O)(=O)Cc4ccccc4Cl)CC3)OC2=O)c1
result-value: 76
--
compound: Cc1ccc(CN2CC3(CCN(C(=O)NCc4ccc(Cl)c(Cl)c4)CC3)OC2=O)cc1
result-value: 56
--
compound: COc1ccccc1NC(=S)N1CCC2(CC1)CN(Cc1cccc(Br)c1)C(=O)O2
result-value: 63
--
compound: N#Cc1ccc(CN2CC3(CCN(S(=O)(=O)c4ccc5c(c4)CN(C(=O)C(F)(F)F)CC5)CC3)OC2=O)cc1
result-value: 67
--
compound: O=C1OC2(CCN(C(=O)c3ccc(-c4ccccc4)cc3)CC2)CN1Cc1ccc(I)cc1
result-value: 66
--
compound: CCOC(=O)c1cccc(NC(=O)N2CCC3(CC2)CN(Cc2ccc(C)cc2)C(=O)O3)c1
result-value: 68
--
compound: CCOc1ccc(NC(=S)N2CCC3(CC2)CN(Cc2ccc(F)c(F)c2)C(=O)O3)cc1
result-value: 44
--
compound: CCCCOc1ccc(NC(=O)N2CCC3(CC2)CN(Cc2ccc(I)cc2)C(=O)O3)cc1
result-value: 49
--
compound: N#Cc1ccc(CN2CC3(CCN(C(=O)c4ccc(-c5ccccc5)cc4)CC3)OC2=O)cc1
result-value: 84
--
compound: O=C(O)CC1(CC(=O)N2CCC3(CC2)CN(Cc2ccc(F)c(F)c2)C(=O)O3)CCCC1
result-value: 45
--
compound: CC(C)(C)OC(=O)NC(Cc1c[nH]c2ccccc12)C(=O)N1CCC2(CC1)CN(Cc1cccc(Br)c1)C(=O)O2 (centres unmarked)
result-value: 53
--
compound: O=C1OC2(CCN(C(=O)c3cccnc3Oc3ccccc3)CC2)CN1Cc1cccc(Br)c1
result-value: 81
--
compound: O=C1OC2(CCN(Cc3ccc(OC(F)(F)F)cc3)CC2)CN1Cc1ccccc1
result-value: 51
--
compound: COc1ccc(OC)c(NC(=O)N2CCC3(CC2)CN(Cc2ccc4ccccc4c2)C(=O)O3)c1
result-value: 61
--
compound: O=C1OC2(CCN(Cc3ccc(OC(F)(F)F)cc3)CC2)CN1Cc1ccc(F)c(F)c1
result-value: 75
--
compound: COc1ccc([N+](=O)[O-])cc1CN1CC2(CCN(C(=S)NCc3ccccc3)CC2)OC1=O
result-value: 60
